TESTED_SYSTEM: somatostatin receptor type 2 (SSTR2) (UniProt P30874 1-369)
Sequence (P30874 whole entry): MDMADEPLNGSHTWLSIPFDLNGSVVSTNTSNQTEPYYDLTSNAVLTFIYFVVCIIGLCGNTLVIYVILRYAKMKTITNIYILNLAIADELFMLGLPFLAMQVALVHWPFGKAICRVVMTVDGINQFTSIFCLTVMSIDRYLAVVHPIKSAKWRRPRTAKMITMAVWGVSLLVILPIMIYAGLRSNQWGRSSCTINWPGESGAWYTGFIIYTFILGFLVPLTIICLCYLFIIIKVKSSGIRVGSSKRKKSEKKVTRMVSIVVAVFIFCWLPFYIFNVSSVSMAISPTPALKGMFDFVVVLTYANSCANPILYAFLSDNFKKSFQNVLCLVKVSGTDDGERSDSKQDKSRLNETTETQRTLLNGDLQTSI
TEST: cell-based or functional assay
Positions of bridges follow the written chain, without caps; N, C: chain ends. Non-standard residues stand in square brackets, D forms with d. dPhe(4-CONH2) = NC(=O)c1ccc(C[C@@H](N)C(=O)O)cc1; Phe(4-Cl) = N[C@@H](Cc1ccc(Cl)cc1)C(=O)O; NMeC = CN[C@@H](CS)C(=O)O
Exam item: assign YES to entries whose IC50 (PathHunter β-Arrestin, antagonist mode) is below 0.002 µM and NO to entries at or above 0.002 µM. Note that a value of exactly 0.002 µM receives NO.

IN: I wonder whether {2‑(phenylsulfonyl)acetyl}-[Phe(4-Cl)][dC]Y[dPhe(4-CONH2)]K(Me)TC[dY]-NH2 (disulfide 2-7) [Compound 51: PhSO2CH2(CO)-Cpa-cyclo[D-Cys-Tyr-D-Phe(4-carbamoyl)-Lys(Nε-Me)-Thr-Cys]-D-Tyr-NH2] has IC50 (PathHunter β-Arrestin, antagonist mode) below 0.002 µM. Can you tell?
OUT: YES

IN: I wonder whether XXYXKTCX (HELM PEPTIDE1{[CN[C@@H](Cc1ccc(Cl)cc1)C(=O)[*:2]].[dC].Y.[NC(=O)c1ccc(C[C@@H](N[*:1])C(=O)[*:2])cc1].K.T.C.[dY].[am]}$PEPTIDE1,PEPTIDE1,2:R3-7:R3$$$V2.0; SMILES CN[C@@H](Cc1ccc(Cl)cc1)C(=O)N[C@@H]1CSSC[C@@H](C(=O)N[C@H](Cc2ccc(O)cc2)C(N)=O)NC(=O)[C@H]([C@@H](C)O)NC(=O)[C@H](CCCCN)NC(=O)[C@@H](Cc2ccc(C(N)=O)cc2)NC(=O)[C@H](Cc2ccc(O)cc2)NC1=O) [Compound 77: H-(N-Me)Cpa-cyclo[D-Cys-Tyr-D-Phe(4-carbamoyl)-Lys-Thr-Cys]-D-Tyr-NH2] has IC50 (PathHunter β-Arrestin, antagonist mode) below 0.002 µM. Can you tell?
OUT: NO

Next:
IN: I wonder whether H-[Phe(4-Cl)][dC]Y[dPhe(4-CONH2)]KT[NMeC][dY]-NH2 (disulfide 2-7; SMILES C[C@@H](O)[C@@H]1NC(=O)[C@H](CCCCN)NC(=O)[C@@H](Cc2ccc(C(N)=O)cc2)NC(=O)[C@H](Cc2ccc(O)cc2)NC(=O)[C@H](NC(=O)[C@@H](N)Cc2ccc(Cl)cc2)CSSC[C@@H](C(=O)N[C@H](Cc2ccc(O)cc2)C(N)=O)N(C)C1=O) [Compound 76: H-Cpa-[DCys-Tyr-DPhe(4-carbamoyl)-Lys-Thr-NMeCys]-DTyr-NH2] has IC50 (PathHunter β-Arrestin, antagonist mode) below 0.002 µM. Can you tell?
OUT: NO

IN: I wonder whether H-[Phe(4-Cl)][dC]Y[dPhe(4-aminomethyl)]KTC[dY]-NH2 (disulfide 2-7) [Compound 5: H-Cpa-cyclo[DCys-Tyr-D-(4-aminomethyl)Phe-Lys-Thr-Cys]-DTyr-NH2] has IC50 (PathHunter β-Arrestin, antagonist mode) below 0.002 µM. Can you tell?
OUT: NO

IN: I wonder whether XXXXKTCX (HELM PEPTIDE1{[N[C@@H](Cc1ccc(Cl)cc1)C(=O)[*:2]].[dC].[meY].[NC(=O)c1ccc(C[C@@H](N[*:1])C(=O)[*:2])cc1].K.T.C.[dY].[am]}$PEPTIDE1,PEPTIDE1,2:R3-7:R3$$$V2.0; SMILES C[C@@H](O)[C@@H]1NC(=O)[C@H](CCCCN)NC(=O)[C@@H](Cc2ccc(C(N)=O)cc2)NC(=O)[C@H](Cc2ccc(O)cc2)N(C)C(=O)[C@H](NC(=O)[C@@H](N)Cc2ccc(Cl)cc2)CSSC[C@@H](C(=O)N[C@H](Cc2ccc(O)cc2)C(N)=O)NC1=O) [Compound 74: H-Cpa-[DCys-NMeTyr-DPhe(4-carbamoyl)-Lys-Thr-Cys]-DTyr-NH2] has IC50 (PathHunter β-Arrestin, antagonist mode) below 0.002 µM. Can you tell?
OUT: NO
